tested on: 521955-158-R2-J5-PDC complex spheroid viability; assay: Anticancer human tumor 521955-158-R2-J5-PDC patient-derived pancreatic carcinoma cell line growth inhibition [GQUAD]; settings: curve of first compound; second compound 0.1 µM
Listing of recorded pIC50 by entry.
Hey, just a heads up that pIC50 is the negative log base 10 of the concentration in molar.

Some solved entries appear below for comparison.
Nc1ccn(C2OC(CO)C(O)C2(F)F)c(=O)n1 (stereo not drawn) + Cc1cnc(CNC(=O)c2c(=O)c3ccc(N4CCCN(C)CC4)nc3n3c2sc2ccccc23)cn1; 7.07
O=C(c1cc(Cc2n[nH]c(=O)c3ccccc23)ccc1F)N1CCN(C(=O)C2CC2)CC1 + Cc1cnc(CNC(=O)c2c(=O)c3ccc(N4CCCN(C)CC4)nc3n3c2sc2ccccc23)cn1; 5.54

// next entry
CCc1c2c(nc3ccc(O)cc13)-c1cc3c(c(=O)n1C2)COC(=O)[C@]3(O)CC + CN(C)c1ccc(Nc2c3ccc(NC(=O)CCN4CCCC4)cc3nc3cc(NC(=O)CCN4CCCC4)ccc23)cc1 has a reported pIC50 of 8.52

* * *

tested on: 521955-158-R2-J5-PDC complex spheroid viability; assay: Anticancer human tumor 521955-158-R2-J5-PDC cell line growth inhibition [GQUAD]; conditions: second compound 0.1 µM; first compound 0.0316 µM; stronger effect = lower value;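 further: spheroids exposed to agents for one week before reading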;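 on viability, T/C: 100% = DMSO vehicle control viability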
Listing of recorded viability, T/C by entry.
Return type: number; implicit unit %.

CC1COCCN1c1cc(-c2ccnn2C)c2ccnc(-c3ccn[nH]3)c2n1 (stereo not given) + Cc1cnc(CNC(=O)c2c(=O)c3ccc(N4CCCN(C)CC4)nc3n3c2sc2ccccc23)cn1; 28.9

C=CCn1c(=O)c2cnc(Nc3ccc(N4CCN(C)CC4)cc3)nc2n1-c1cccc(C(C)(C)O)n1 + Cc1[nH]c2ccc(F)cc2c1-c1nc2c3cccnc3c3ncccc3c2[nH]1 has a reported viability, T/C of 95.1

Cc1cccc(N(C)C(=O)C2C(O)CCN2c2nc(C)cc(C(F)(F)F)c2C#N)c1 (stereo not given) + Cc1[nH]c2ccc(F)cc2c1-c1nc2c3cccnc3c3ncccc3c2[nH]1 has a reported viability, T/C of 92.2

CCCS(=O)(=O)Nc1ccc(F)c(C(=O)c2c[nH]c3ncc(-c4ccc(Cl)cc4)cc23)c1F + Cc1cnc(CNC(=O)c2c(=O)c3ccc(N4CCCN(C)CC4)nc3n3c2sc2ccccc23)cn1 has a reported viability, T/C of 52.4

CC(C)(O)C1CCC(Nc2ccc3ncc(-c4cccc(C(F)(F)F)c4)n3n2)CC1 (stereo not given) + Cc1[nH]c2ccc(F)cc2c1-c1nc2c3cccnc3c3ncccc3c2[nH]1 has a reported viability, T/C of 102

Cc1cccc(N(C)C(=O)C2C(O)CCN2c2nc(C)cc(C(F)(F)F)c2C#N)c1 (stereo not given) + CN(C)c1ccc(Nc2c3ccc(NC(=O)CCN4CCCC4)cc3nc3cc(NC(=O)CCN4CCCC4)ccc23)cc1 has a reported viability, T/C of 102

CC(=O)O[C@H]1C(=O)[C@@]2(C)[C@H]([C@H](OC(=O)c3ccccc3)[C@]3(O)C[C@H](OC(=O)[C@H](O)[C@@H](NC(=O)c4ccccc4)c4ccccc4)C(C)=C1C3(C)C)[C@]1(OC(C)=O)CO[C@@H]1C[C@@H]2O + Cc1cnc(CNC(=O)c2c(=O)c3ccc(N4CCCN(C)CC4)nc3n3c2sc2ccccc23)cn1 has a reported viability, T/C of 24.5

C#Cc1c(F)ccc2cc(O)cc(-c3ncc4c(N5CC6CCC(C5)N6)nc(OCC56CCCN5CC(F)C6)nc4c3F)c12 (stereo not given) + Cc1cnc(CNC(=O)c2c(=O)c3ccc(N4CCCN(C)CC4)nc3n3c2sc2ccccc23)cn1 has a reported viability, T/C of 24.5

COc1ncnc(C2CC2)c1-c1ncc2cnn(Cc3ccc(-c4nc(C(F)(F)F)cn4C(C)C)cc3)c2n1 + Cc1[nH]c2ccc(F)cc2c1-c1nc2c3cccnc3c3ncccc3c2[nH]1 has a reported viability, T/C of 101

CC(C)n1c(=O)n(C)c2cnc3cc(F)c(-c4ccc(OCCCN5CCCCC5)nc4)cc3c21 + Cc1cnc(CNC(=O)c2c(=O)c3ccc(N4CCCN(C)CC4)nc3n3c2sc2ccccc23)cn1 has a reported viability, T/C of 44.2

* * *

test system: 521955-158-R2-J5-PDC complex spheroid viability; assay: Anticancer human tumor 521955-158-R2-J5-PDC cell line growth inhibition [GQUAD]; details: second compound 0.0316 µM; first compound 0.000999 µM; stronger effect = lower value;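 further: spheroids exposed to agents for one week before reading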;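 on viability, T/C: 100% = DMSO vehicle control viability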
Listing of recorded viability, T/C by entry.
Return type: number; implicit unit %.

Cc1[nH]c2ccccc2c1CCNCc1ccc(/C=C/C(=O)NO)cc1 + CN(C)c1ccc(Nc2c3ccc(NC(=O)CCN4CCCC4)cc3nc3cc(NC(=O)CCN4CCCC4)ccc23)cc1; 132
CCc1c2c(nc3ccc(O)cc13)-c1cc3c(c(=O)n1C2)COC(=O)[C@]3(O)CC + Cc1[nH]c2ccc(F)cc2c1-c1nc2c3cccnc3c3ncccc3c2[nH]1; 66.5

// next entry
Cc1[nH]c2ccccc2c1CCNCc1ccc(/C=C/C(=O)NO)cc1 + Cc1[nH]c2ccc(F)cc2c1-c1nc2c3cccnc3c3ncccc3c2[nH]1 has a reported viability, T/C of 116

* * *

test system: 521955-158-R2-J5-PDC complex spheroid viability; experiment: Anticancer human tumor 521955-158-R2-J5-PDC cell line growth inhibition [GQUAD]; details: curve of first compound; second compound 0.1 µM;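 further: spheroids exposed to agents for one week before reading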
pIC50: −log10 of the molar value.
I would appreciate it if you labelled entries class 1 when pIC50 is 6 or higher, otherwise class 0.

Previously resolved entries follow.
CC(C)n1c(=O)n(C)c2cnc3cc(F)c(-c4ccc(OCCCN5CCCCC5)nc4)cc3c21 + Cc1[nH]c2ccc(F)cc2c1-c1nc2c3cccnc3c3ncccc3c2[nH]1; class 0
COc1ccc([C@@H](O)c2cc(-c3ncnc4cc(N5CCOCC5)ccc34)c(F)cc2Cl)nn1 + CN(C)c1ccc(Nc2c3ccc(NC(=O)CCN4CCCC4)cc3nc3cc(NC(=O)CCN4CCCC4)ccc23)cc1; class 0
O=c1[nH]cc(F)c(=O)[nH]1 + Cc1[nH]c2ccc(F)cc2c1-c1nc2c3cccnc3c3ncccc3c2[nH]1; class 0

Could you please find out whether O=C(NO)c1cnc(N2CCN(S(=O)(=O)c3ccc4ccccc4c3)CC2)nc1 + Cc1cnc(CNC(=O)c2c(=O)c3ccc(N4CCCN(C)CC4)nc3n3c2sc2ccccc23)cn1 has pIC50 that meets 6 or exceeds it?
class 1

* * *

system: 521955-158-R2-J5-PDC complex spheroid viability; assay: Anticancer human tumor 521955-158-R2-J5-PDC cell line growth inhibition [GQUAD]; settings: second compound 10 µM; first compound 0.0999 µM; stronger effect = lower value;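 further: spheroids exposed to agents for one week before reading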;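 on viability, T/C: 100% = DMSO vehicle control viability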
# if measured viability, T/C < 20%: satisfied  # else: not satisfied

Previously resolved entries follow.
CCc1c2c(nc3ccc(O)cc13)-c1cc3c(c(=O)n1C2)COC(=O)[C@]3(O)CC + Cc1cnc(CNC(=O)c2c(=O)c3ccc(N4CCCN(C)CC4)nc3n3c2sc2ccccc23)cn1; satisfied
CC[C@@]1(O)C(=O)OCc2c1cc1n(c2=O)Cc2cc3c(CN(C)C)c(O)ccc3nc2-1 + Cc1[nH]c2ccc(F)cc2c1-c1nc2c3cccnc3c3ncccc3c2[nH]1; not satisfied
CC[C@@]1(O)C(=O)OCc2c1cc1n(c2=O)Cc2cc3c(CN(C)C)c(O)ccc3nc2-1 + Cc1cnc(CNC(=O)c2c(=O)c3ccc(N4CCCN(C)CC4)nc3n3c2sc2ccccc23)cn1; satisfied
CCc1c2c(nc3ccc(O)cc13)-c1cc3c(c(=O)n1C2)COC(=O)[C@]3(O)CC + Cc1[nH]c2ccc(F)cc2c1-c1nc2c3cccnc3c3ncccc3c2[nH]1; satisfied
Cn1ncnc1[C@H]1c2n[nH]c(=O)c3cc(F)cc(c23)N[C@@H]1c1ccc(F)cc1 + Cc1cnc(CNC(=O)c2c(=O)c3ccc(N4CCCN(C)CC4)nc3n3c2sc2ccccc23)cn1; satisfied

viability, T/C under 20%? Item: Cn1ncnc1[C@H]1c2n[nH]c(=O)c3cc(F)cc(c23)N[C@@H]1c1ccc(F)cc1 + Cc1[nH]c2ccc(F)cc2c1-c1nc2c3cccnc3c3ncccc3c2[nH]1
not satisfied

viability, T/C under 20%? Item: CC[C@@]1(O)C(=O)OCc2c1cc1n(c2=O)Cc2cc3c(CN(C)C)c(O)ccc3nc2-1 + CN(C)c1ccc(Nc2c3ccc(NC(=O)CCN4CCCC4)cc3nc3cc(NC(=O)CCN4CCCC4)ccc23)cc1
not satisfied

viability, T/C under 20%? Item: Cn1ncnc1[C@H]1c2n[nH]c(=O)c3cc(F)cc(c23)N[C@@H]1c1ccc(F)cc1 + CN(C)c1ccc(Nc2c3ccc(NC(=O)CCN4CCCC4)cc3nc3cc(NC(=O)CCN4CCCC4)ccc23)cc1
not satisfied

viability, T/C under 20%? Item: Cc1[nH]c2ccccc2c1CCNCc1ccc(/C=C/C(=O)NO)cc1 + Cc1[nH]c2ccc(F)cc2c1-c1nc2c3cccnc3c3ncccc3c2[nH]1
not satisfied

viability, T/C under 20%? Item: Cc1[nH]c2ccccc2c1CCNCc1ccc(/C=C/C(=O)NO)cc1 + CN(C)c1ccc(Nc2c3ccc(NC(=O)CCN4CCCC4)cc3nc3cc(NC(=O)CCN4CCCC4)ccc23)cc1
not satisfied

viability, T/C under 20%? Item: CCc1c2c(nc3ccc(O)cc13)-c1cc3c(c(=O)n1C2)COC(=O)[C@]3(O)CC + CN(C)c1ccc(Nc2c3ccc(NC(=O)CCN4CCCC4)cc3nc3cc(NC(=O)CCN4CCCC4)ccc23)cc1
satisfied

viability, T/C under 20%? Item: Cc1[nH]c2ccccc2c1CCNCc1ccc(/C=C/C(=O)NO)cc1 + Cc1cnc(CNC(=O)c2c(=O)c3ccc(N4CCCN(C)CC4)nc3n3c2sc2ccccc23)cn1
satisfied
